# Measurement target: T1, human DR5 ECD-Avi-his (human, UniProt O14763 56-207)
# T1 construct: also called recombinant human DR5 (monomeric His-Avi fusion protein); monomeric human DR5
# Test summary: SPR (BIAcore 3000), antibody captured by anti-human Fc, monomeric DR5 injected
Readout label: pKd
Give only the number. pKd is defined as minus log10 of concentration in molar units.

Sure, the documented pKd for DR5TAA-0052 (antibody, human IgG1, kappa, L234A L235A, V domains shown, rabbit variable, human constant regions; also called chimeric form of DR5TAA-0011; chimeric variant) VH: QSVEESGGRLVTPGTPLTLTCTVSGFSISRYAMIWVRQAPGEGLEYIGFITSDSSAYYASWAKGRFTISKTSTTVDLKMTSPTTEDTATYFCARYTYSDGTDLWGPGTLVTVSS VL: DIVMTQTPASVSEPVGGTVTIKCQASQSISTYLSWYQQKPGQPPKRLIYKASTLASGVPSRFKGSGSGTDFTLTIRDLESADAATYYCQPNSGIATYGAAFGGGTEVVVKR is 8.15

Sure, the documented pKd for DR5TAA-0075 (antibody, human IgG1, kappa, L234A L235A, V domains shown, humanized variant of DR5TAA-0011; also called VH7/VL11) VH: EVQLVETGGGLIQPGGSLRLSCAASGFTVSRYAMIWVRQAPGKGLEYIGFITSDGSTYYADSAKGRFTISRDNSKNTLYLQMNSLRAEDTAVYYCARYTYSDGTDLWGRGTLVTVSS VL: DIQMTQSPSSLSASVGDRVTITCQASQSISTYLSWYQQKPGQPPKRLIYKASTLASGVPSRFSGSGSGTDFTLTISSLQPEDFATYYCQPNSGIATYGAAFGGGTKVEIKR is 7.77

// sample DR5TAA-0067 (antibody, human IgG1, kappa, L234A L235A, V domains shown, humanized variant of DR5TAA-0011; also called VH7/VL15) VH: EVQLVETGGGLIQPGGSLRLSCAASGFTVSRYAMIWVRQAPGKGLEYIGFITSDGSTYYADSAKGRFTISRDNSKNTLYLQMNSLRAEDTAVYYCARYTYSDGTDLWGRGTLVTVSS VL: DIQMTQSPSTLSASVGDRVTITCRASQSISTYLSWYQQKPGKAPKRLIYKASSLASGVPSRFSGSGSGTEFTLTISSLQPDDAATYYCQPNSGIATYGAAFGGGTKVEIKR , its pKd was 7.70

// sample DR5TAA-0074 (antibody, human IgG1, kappa, L234A L235A, V domains shown, humanized variant of DR5TAA-0011; also called VH7/VL10) VH: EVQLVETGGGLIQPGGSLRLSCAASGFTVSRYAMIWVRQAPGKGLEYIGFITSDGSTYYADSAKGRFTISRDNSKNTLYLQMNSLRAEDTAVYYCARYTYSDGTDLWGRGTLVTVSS VL: DIQMTQSPSSLSASVGDRVTITCRASQSISTYLSWYQQKPGQPPKRLIYKASTLASGVPSRFSGSGSGTDFTLTISSLQPEDFATYYCQPNSGIATYGAAFGGGTKVEIKR , its pKd was 7.68

Values compiled from patent US20190062453A1.
